# target desc: Histone deacetylase 1/2/3/6 (Homo sapiens, UniProt Q13547+O15379+Q9UBN7+Q92769)
# assay info: Inhibition of HDAC1/2/3/6 in human Cal27CisR cells using Boc-Lys(epsilon-Ac)-AMC as substrate preincubated for 18 hrs followed by substrate addition measured after 3 hrs by fluorescence assay
# Type: cell-based
value type: IC50

INSERT INTO measurements (molecule, value_type, result) VALUES
  ('CC(C)CNC(=O)CN(CCCCCC(=O)NO)C(=O)c1ccc(N(C)C)cc1', 'IC50', '0.8 µM'),
  ('O=C(CCCCCN(CC(=O)NC1CCCCC1)C(=O)c1cccc2ccccc12)NO', 'IC50', '0.6 µM'),
  ('Cc1ccc(C(C(=O)NC2CCCCC2)N(CCCCCC(=O)NO)C(=O)c2ccccc2)cc1 (configuration not stated)', 'IC50', '3.22 µM'),
  ('CC(C)(C)NC(=O)CN(CCCCCC(=O)NO)C(=O)c1ccccc1', 'IC50', '4.59 µM'),
  ('CN(C)c1ccc(C(=O)N(CCCCCC(=O)NO)CC(=O)NCc2ccccc2)cc1', 'IC50', '0.35 µM'),
  ('O=C(CCCCCN(CC(=O)NC1CCCCC1)C(=O)c1ccccc1)NO', 'IC50', '1.08 µM'),
  ('CN(C)c1ccc(C(=O)N(CCCCCC(=O)NO)C(C)(C)C(=O)NC2CCCCC2)cc1', 'IC50', '28.8 µM'),
  ('O=C(CCCCCN(C(=O)c1ccccc1)C(C(=O)NC1CCCCC1)c1ccccc1)NO (configuration not stated)', 'IC50', '2.65 µM'),
  ('CN(C)c1ccc(C(=O)N(CCCCCC(=O)NO)CC(=O)NC(C)(C)C)cc1', 'IC50', '1.97 µM'),
  ('Cc1ccc(NC(=O)CN(CCCCCC(=O)NO)C(=O)c2cc(C)cc(C)c2)cc1', 'IC50', '0.8 µM'),
  ('Cc1cc(C)cc(C(=O)N(CCCCCC(=O)NO)CC(=O)NCc2ccccc2)c1', 'IC50', '0.41 µM'),
  ('Cc1ccc(NC(=O)CN(CCCCCC(=O)NO)C(=O)c2ccc(N(C)C)cc2)cc1', 'IC50', '0.49 µM'),
  ('CC(C)(C(=O)NC1CCCCC1)N(CCCCCC(=O)NO)C(=O)c1ccccc1', 'IC50', '43 µM'),
  ('Cc1cc(C)cc(C(=O)N(CCCCCC(=O)NO)CC(=O)NC2CCCCC2)c1', 'IC50', '0.64 µM'),
  ('O=C(CCCCCN(C(=O)c1ccccc1)C1(C(=O)NC2CCCCC2)CCCCC1)NO', 'IC50', '10.2 µM'),
  ('CN(C)c1ccc(C(=O)N(CCCCCC(=O)NO)CC(=O)NC2CCCCC2)cc1', 'IC50', '1.52 µM'),
  ('CC(C)(C)NC(=O)C(C)(C)N(CCCCCC(=O)NO)C(=O)c1ccccc1', 'IC50', '132 µM');

----------
# target desc: Histone deacetylase 3/Nuclear receptor corepressor 2 (HDAC3/NCoR2) (Homo sapiens)
# Sequence (O15379 whole entry): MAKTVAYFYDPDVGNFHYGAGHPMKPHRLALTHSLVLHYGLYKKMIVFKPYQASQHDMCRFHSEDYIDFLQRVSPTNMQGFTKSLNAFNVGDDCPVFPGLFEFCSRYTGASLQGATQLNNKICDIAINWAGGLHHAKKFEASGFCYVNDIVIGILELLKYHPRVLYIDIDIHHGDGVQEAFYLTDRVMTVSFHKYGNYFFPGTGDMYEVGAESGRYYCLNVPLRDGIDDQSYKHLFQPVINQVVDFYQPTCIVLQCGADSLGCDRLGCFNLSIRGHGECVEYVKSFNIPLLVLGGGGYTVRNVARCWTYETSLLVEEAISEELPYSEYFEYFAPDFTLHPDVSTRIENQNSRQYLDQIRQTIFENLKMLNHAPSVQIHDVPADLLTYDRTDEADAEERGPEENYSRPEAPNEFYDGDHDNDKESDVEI
# Sequence (Q9Y618 whole entry, further chain): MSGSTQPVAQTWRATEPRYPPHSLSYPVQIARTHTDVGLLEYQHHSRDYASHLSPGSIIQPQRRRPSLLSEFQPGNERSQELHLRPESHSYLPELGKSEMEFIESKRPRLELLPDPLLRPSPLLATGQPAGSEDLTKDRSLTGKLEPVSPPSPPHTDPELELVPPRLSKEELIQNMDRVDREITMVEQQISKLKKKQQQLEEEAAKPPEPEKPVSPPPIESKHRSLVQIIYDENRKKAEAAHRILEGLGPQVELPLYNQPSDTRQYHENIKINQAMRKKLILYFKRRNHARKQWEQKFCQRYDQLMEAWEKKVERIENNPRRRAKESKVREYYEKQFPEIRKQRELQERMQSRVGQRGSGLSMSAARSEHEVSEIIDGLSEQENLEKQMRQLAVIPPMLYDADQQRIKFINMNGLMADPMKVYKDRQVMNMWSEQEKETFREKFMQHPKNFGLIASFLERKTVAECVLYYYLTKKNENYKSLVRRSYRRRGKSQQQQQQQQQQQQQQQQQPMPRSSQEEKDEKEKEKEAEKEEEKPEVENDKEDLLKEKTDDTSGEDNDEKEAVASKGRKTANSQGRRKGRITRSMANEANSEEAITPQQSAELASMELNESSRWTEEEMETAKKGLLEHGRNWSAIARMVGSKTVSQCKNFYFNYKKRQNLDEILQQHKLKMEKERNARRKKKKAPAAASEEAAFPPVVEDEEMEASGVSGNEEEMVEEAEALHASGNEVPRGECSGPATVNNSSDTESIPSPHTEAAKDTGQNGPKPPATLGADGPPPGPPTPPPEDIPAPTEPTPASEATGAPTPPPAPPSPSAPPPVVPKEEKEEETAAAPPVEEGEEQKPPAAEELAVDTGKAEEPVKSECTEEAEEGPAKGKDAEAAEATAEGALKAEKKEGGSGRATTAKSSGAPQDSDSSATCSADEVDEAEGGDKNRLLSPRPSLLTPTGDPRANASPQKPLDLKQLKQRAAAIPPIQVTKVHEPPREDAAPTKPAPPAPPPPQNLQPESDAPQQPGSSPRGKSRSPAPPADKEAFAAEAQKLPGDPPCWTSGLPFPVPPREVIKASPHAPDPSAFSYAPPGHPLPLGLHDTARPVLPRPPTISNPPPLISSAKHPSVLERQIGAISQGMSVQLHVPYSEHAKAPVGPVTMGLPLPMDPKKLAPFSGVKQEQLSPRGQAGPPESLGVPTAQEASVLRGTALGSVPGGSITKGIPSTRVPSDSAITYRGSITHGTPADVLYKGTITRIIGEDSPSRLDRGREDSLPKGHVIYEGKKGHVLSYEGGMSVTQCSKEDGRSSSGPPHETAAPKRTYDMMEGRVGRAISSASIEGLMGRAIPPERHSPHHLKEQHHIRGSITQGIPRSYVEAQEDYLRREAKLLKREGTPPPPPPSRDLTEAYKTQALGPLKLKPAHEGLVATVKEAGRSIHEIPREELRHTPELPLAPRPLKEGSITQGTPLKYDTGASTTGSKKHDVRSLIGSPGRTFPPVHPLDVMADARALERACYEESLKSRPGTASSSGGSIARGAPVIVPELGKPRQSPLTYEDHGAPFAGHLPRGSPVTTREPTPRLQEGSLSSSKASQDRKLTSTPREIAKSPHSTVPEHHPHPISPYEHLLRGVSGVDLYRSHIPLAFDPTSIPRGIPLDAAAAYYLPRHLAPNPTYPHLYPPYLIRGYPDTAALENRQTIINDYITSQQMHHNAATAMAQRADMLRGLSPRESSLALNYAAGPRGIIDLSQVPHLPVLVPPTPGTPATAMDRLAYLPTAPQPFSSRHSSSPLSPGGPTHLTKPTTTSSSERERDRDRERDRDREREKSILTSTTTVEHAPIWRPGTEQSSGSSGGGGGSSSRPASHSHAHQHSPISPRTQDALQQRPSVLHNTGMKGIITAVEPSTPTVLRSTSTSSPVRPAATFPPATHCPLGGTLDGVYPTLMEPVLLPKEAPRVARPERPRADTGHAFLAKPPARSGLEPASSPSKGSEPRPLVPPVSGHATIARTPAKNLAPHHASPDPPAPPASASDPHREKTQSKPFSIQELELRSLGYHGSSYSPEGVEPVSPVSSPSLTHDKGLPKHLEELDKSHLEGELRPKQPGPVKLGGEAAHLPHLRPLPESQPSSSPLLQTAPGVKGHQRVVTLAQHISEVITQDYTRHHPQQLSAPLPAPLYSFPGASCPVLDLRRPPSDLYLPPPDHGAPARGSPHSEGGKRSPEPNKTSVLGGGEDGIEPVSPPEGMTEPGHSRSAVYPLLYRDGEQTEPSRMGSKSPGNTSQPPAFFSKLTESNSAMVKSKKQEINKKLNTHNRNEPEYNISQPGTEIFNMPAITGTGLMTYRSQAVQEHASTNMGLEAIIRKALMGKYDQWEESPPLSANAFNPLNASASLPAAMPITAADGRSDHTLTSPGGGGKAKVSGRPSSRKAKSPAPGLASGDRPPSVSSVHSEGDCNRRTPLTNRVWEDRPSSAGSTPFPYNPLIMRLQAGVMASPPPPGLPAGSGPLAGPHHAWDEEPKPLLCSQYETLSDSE
# assay info: Inhibition of full length human recombinant C-terminal His-tagged HDAC3/NcoR2 expressed in baculovirus infected Sf9 insect cells using Boc-Lys(epsilon-Ac)-AMC as substrate measured after 90 mins by fluorescence assay
pIC50: −log10 of the molar value.
Each entry below carries its reported pIC50.
value type: pIC50

INSERT INTO results (cpd_smiles, target_desc, quantitative_result) VALUES
  ('CN(C)c1ccc(C(=O)N(CCCCCC(=O)NO)CC(=O)NCc2ccccc2)cc1', 'Histone deacetylase 3/Nuclear receptor corepressor 2 (HDAC3/NCoR2) (Homo sapiens)', 8.19),
  ('Cc1ccc(NC(=O)CN(CCCCCC(=O)NO)C(=O)c2ccc(N(C)C)cc2)cc1', 'Histone deacetylase 3/Nuclear receptor corepressor 2 (HDAC3/NCoR2) (Homo sapiens)', 7.80),
  ('Cc1cc(C)cc(C(=O)N(CCCCCC(=O)NO)CC(=O)NC2CCCCC2)c1', 'Histone deacetylase 3/Nuclear receptor corepressor 2 (HDAC3/NCoR2) (Homo sapiens)', 7.22),
  ('Cc1cc(C)cc(C(=O)N(CCCCCC(=O)NO)CC(=O)NCc2ccccc2)c1', 'Histone deacetylase 3/Nuclear receptor corepressor 2 (HDAC3/NCoR2) (Homo sapiens)', 7.59);
